IC50 values by entry
Target Under Test: PscE-PscG interaction (Pseudomonas aeruginosa, UniProt P95435+Q9I317)
Sequence (Q9I317 whole entry): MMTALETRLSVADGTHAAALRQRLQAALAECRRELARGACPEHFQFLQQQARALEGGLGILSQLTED
Sequence (P95435 whole entry): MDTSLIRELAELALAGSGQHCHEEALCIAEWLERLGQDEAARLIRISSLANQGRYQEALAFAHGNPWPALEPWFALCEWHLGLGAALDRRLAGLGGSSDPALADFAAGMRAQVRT
Experimental Details: ELISA test of inhibition of the PscE-PscG interaction
Dear colleague, please return just the value in µM, with no unit written.

compound="NC(CO)C(=O)NNCc1ccc(O)c(O)c1O (centres unmarked) [Benserazide, reference compound]" measurement=11

Consider the record given below.
IC50 reading for Oc1c(I)cc(Cl)c2cccnc12 [Clioquinol, reference compound] : 5

* * *

Target Under Test: PscE-PscG interaction (Pseudomonas aeruginosa, UniProt P95435+Q9I317)
Construct: made in house; host or cells: E. coli
Experimental Details: ELISA test of inhibition of the PscE-PscG interaction
Format: binding
Condition Set: 4 h, read-out: PscE-PscG at 50 μM
Measure: inhibition at 50 µM (%)
Dear colleague, please return just the value in %, with no unit written.

Some compounds with recorded inhibition at 50 µM:
item_smiles=[N-]=[N+]=NCCCCCCCCCCCCOCCCc1ccc[n+](CCCCCCCCCCCCOCCCc2cccnc2)c1 target_under_test="PscE-PscG interaction (Pseudomonas aeruginosa, UniProt P95435+Q9I317)" measurement=30.6
item_smiles=[N-]=[N+]=NCCCCCCCCOCCCc1ccc[n+](CCCCCCCCCCOCCCc2cccnc2)c1 target_under_test="PscE-PscG interaction (Pseudomonas aeruginosa, UniProt P95435+Q9I317)" measurement=24
item_smiles=CC(=O)Oc1c(-c2cn(CCCCCCOCCCc3ccc[n+](CCCCCCCCCCOCCCc4cccnc4)c3)nn2)cc(Cl)c2cccnc12 target_under_test="PscE-PscG interaction (Pseudomonas aeruginosa, UniProt P95435+Q9I317)" measurement=71.6
item_smiles=[N-]=[N+]=NCCCCCCCCCCCCOCCCc1ccc[n+](CCCCCCCCCCOCCCc2cccnc2)c1 target_under_test="PscE-PscG interaction (Pseudomonas aeruginosa, UniProt P95435+Q9I317)" measurement=54.2
item_smiles=CC(=O)Oc1c(-c2cn(CCCCCCCCCCOCCCc3ccc[n+](CCCCCCCCCCCCOCCCc4cccnc4)c3)nn2)cc(Cl)c2cccnc12 target_under_test="PscE-PscG interaction (Pseudomonas aeruginosa, UniProt P95435+Q9I317)" measurement=18.9

inhibition at 50 µM reading for CC(=O)Oc1c(-c2cn(CCCCCCCCCCCCOCCCc3ccc[n+](CCCCCCCCCCCCOCCCc4cccnc4)c3)nn2)cc(Cl)c2cccnc12 : 3.4

inhibition at 50 µM reading for [N-]=[N+]=NCCCCCCOCCCc1ccc[n+](CCCCCCCCCCOCCCc2cccnc2)c1 : 39.6
